These data points were gathered from the supplement of paper PMC10065799.

- Tested on: Fer (mouse);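 also: 11-residue human phosphosite peptides and single-mutation variants displayed on the E. coli surface, counted by deep sequencing, each peptide's frequency after selection divided by its frequency in the unselected input library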;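 also: frequency after pTyr selection over input frequency; kinase dosed for 20-30% of maximal phosphorylation in three min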
- experiment-description: phosphorylation enrichment, bacterial display (enrichment ratio); higher = better substrate or ligand; peptides without Tyr show the background
quantity: phosphorylation enrichment
Output spec: single numeric token, no unit.

Examples from the recorded data:
>>> df
                    residue_sequence  recorded_number
0      YPKAHYHWLVL [APTX_Y214_R213H]            0.571
1  IGERTYGQVFK [CDK13_Y716_G714R_YF]            0.456
2   MPIPMYDGSQA [CARMIL1_Y637_A639G]            0.402
3    LQFRNYQQLFD [MAN2A1_Y442_K440R]             0.65
4       SHMVNYQPYRK [TEX37_Y25_D24N]            0.293

Recorded result, PRDGEYFTLQI [TP53_Y327_L323R] , phosphorylation enrichment: 0.775

Recorded result, KIDAKYKKKIE [WDR19_Y1230] , phosphorylation enrichment: 0.401

Recorded result, LENSTYQYICV [CRB1_Y760_R764C] , phosphorylation enrichment: 15.4
